targetOrTestSystem: T1, purified full-length cannabinoid receptor type 2 (CNR2) (human, UniProt P34972 1-360)
T1 construct: human cannabinoid receptor type 2; further tags may be present; also called full-length CNR2; source: P. pastoris, solubilized in DDM/CHS, purified (HisTrap)
T1 sequence (P34972 whole entry): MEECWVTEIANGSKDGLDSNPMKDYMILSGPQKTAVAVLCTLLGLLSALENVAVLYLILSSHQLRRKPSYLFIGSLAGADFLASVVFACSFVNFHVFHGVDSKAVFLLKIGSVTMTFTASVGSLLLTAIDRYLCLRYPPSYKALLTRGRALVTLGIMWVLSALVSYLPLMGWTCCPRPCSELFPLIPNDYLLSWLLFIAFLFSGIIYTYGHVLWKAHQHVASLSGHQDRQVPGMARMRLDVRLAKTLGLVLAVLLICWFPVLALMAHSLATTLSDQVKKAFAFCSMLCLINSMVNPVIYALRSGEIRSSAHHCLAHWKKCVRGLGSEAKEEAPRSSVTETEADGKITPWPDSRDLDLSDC
assayExplanation: SPR; competition: 1.1 µM ADRB2 or 0.30 µM CNR2 preincubated at least 1 h with a range of GASP peptide or control peptide, injected over captured GST-tagged central domain of GASP-1; 25°C; endpoint responses 20 s after injection end
conditionsUsed: both partners purified
property: IC50

binder="RVKQEPRFEEEVIIGSWFWAEKEA (24 amino acids containing the first GASP motif of GASP-2; also called synthetic peptide of 24 amino acids containing the first GASP motif of GASP-2; source: synthetic peptide (Genecust, ≥85% purity)) [GASP peptide]" observed="~100 µM"

Entry source: paper PMC3575409
